# target.of.assay: EP4 (Homo sapiens (Human), UniProt P35408)
# Sequence (P35408 whole entry): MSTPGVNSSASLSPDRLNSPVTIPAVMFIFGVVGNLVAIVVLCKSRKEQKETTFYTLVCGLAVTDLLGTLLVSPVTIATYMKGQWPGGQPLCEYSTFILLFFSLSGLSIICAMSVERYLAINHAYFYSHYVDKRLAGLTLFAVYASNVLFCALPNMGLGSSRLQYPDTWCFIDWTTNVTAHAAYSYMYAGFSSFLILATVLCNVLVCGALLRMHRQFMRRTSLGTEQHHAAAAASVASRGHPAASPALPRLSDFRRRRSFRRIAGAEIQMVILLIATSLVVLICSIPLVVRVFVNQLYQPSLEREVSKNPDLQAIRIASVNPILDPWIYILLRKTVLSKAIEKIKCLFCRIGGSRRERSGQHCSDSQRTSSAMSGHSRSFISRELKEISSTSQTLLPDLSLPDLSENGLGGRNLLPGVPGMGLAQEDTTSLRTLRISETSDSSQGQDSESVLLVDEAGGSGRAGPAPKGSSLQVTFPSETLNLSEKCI
# protocol: hEP4 cAMP assay (BT549 breast cancer cells, HTRF cAMP)
# Assay type: cell-based
# particulars: antagonistic activity; mean values where measured multiple times
property.measured: IC50 (nM)

- compound: "CCCOc1cc(-c2cc(NCCn3c(C)cc4c(OC)ccc(F)c43)ncn2)ccc1C(=O)O"
  property.measured: "IC50"
  unit.info: "nM"
  test.value: 99
- compound: "Cc1cc(F)c(F)c2c1cc(C)n2CCNc1cc(-c2ccc(C(=O)O)c(CC(C)C)c2)ncn1"
  property.measured: "IC50"
  unit.info: "nM"
  test.value: 114
- compound: "CCOc1cc(-c2cc(NCCn3c(C)cc4c(C)c(F)cc(F)c43)ncn2)ccc1C(=O)O"
  property.measured: "IC50"
  unit.info: "nM"
  test.value: 88
- compound: "CCCOc1cc(-c2cc(NCCn3c(C)cc4c(C)ccc(F)c43)ncn2)ccc1C(=O)O"
  property.measured: "IC50"
  unit.info: "nM"
  test.value: 113
- compound: "COc1cc(Cl)cc2c1cc(C)n2CCNc1cc(-c2ccc(C(=O)O)c(CC(C)C)c2)ncn1"
  property.measured: "IC50"
  unit.info: "nM"
  test.value: 110
- compound: "CCCc1cc(-c2cc(NCCn3c(C)cc4c(OC)cccc43)ncn2)cc(Cl)c1C(=O)O"
  property.measured: "IC50"
  unit.info: "nM"
  test.value: 94
- compound: "COc1cc(F)cc2c1cc(C)n2CCNc1cc(-c2ccc3[nH]ccc3c2)ncn1"
  property.measured: "IC50"
  unit.info: "nM"
  test.value: 63
- compound: "COc1cc(F)cc2c1cc(C)n2CCNc1cc(-c2ccc(-c3nccs3)cc2)ncn1"
  property.measured: "IC50"
  unit.info: "nM"
  test.value: 105
- compound: "CCOc1cc(-c2cc(NCCn3c(C)cc4c(OC)ccc(Cl)c43)ncn2)ccc1-c1nnn[nH]1"
  property.measured: "IC50"
  unit.info: "nM"
  test.value: 136
